- TESTED SYSTEM: Muscarinic acetylcholine receptor M4 (Homo sapiens); note: in other assays of this panel Not Active means under 50% inhibition at 10 µM
- Sequence (P08173 whole entry): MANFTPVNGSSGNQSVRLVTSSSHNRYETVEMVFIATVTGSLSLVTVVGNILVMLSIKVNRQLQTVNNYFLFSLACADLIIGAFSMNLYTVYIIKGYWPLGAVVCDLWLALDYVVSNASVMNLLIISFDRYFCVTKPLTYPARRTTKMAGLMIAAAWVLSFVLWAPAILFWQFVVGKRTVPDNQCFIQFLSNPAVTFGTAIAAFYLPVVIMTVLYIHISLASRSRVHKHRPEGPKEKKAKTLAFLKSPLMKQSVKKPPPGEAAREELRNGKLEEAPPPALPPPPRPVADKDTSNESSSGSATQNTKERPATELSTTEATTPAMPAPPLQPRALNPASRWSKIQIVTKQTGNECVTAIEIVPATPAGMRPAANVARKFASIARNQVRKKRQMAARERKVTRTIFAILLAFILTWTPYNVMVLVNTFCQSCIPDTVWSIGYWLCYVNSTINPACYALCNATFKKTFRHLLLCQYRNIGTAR
- Type: cell membranes, CHO-K1, Membrane
- CONDITION DETAILS: cho-k1
PARAMETER: IC50

Cc1cccc(N(C)C(=S)Oc2ccc3ccccc3c2)c1 [TOLNAFTATE] ... Not Active
O=c1[nH]c(=O)n([C@H]2C[C@H](O)[C@@H](CO)O2)cc1I ... Not Active
Cc1nc2n(c(=O)c1CCN1CCC(c3noc4cc(F)ccc34)CC1)CCCC2 ... Not Active

----------
Exercise: state measured pIC50 for each of the substances provided.
- TESTED SYSTEM: Alpha-2A adrenergic receptor (Homo sapiens, UniProt P08913); note: in other assays of this panel Not Active means under 50% inhibition at 10 µM
- Sequence (P08913 whole entry): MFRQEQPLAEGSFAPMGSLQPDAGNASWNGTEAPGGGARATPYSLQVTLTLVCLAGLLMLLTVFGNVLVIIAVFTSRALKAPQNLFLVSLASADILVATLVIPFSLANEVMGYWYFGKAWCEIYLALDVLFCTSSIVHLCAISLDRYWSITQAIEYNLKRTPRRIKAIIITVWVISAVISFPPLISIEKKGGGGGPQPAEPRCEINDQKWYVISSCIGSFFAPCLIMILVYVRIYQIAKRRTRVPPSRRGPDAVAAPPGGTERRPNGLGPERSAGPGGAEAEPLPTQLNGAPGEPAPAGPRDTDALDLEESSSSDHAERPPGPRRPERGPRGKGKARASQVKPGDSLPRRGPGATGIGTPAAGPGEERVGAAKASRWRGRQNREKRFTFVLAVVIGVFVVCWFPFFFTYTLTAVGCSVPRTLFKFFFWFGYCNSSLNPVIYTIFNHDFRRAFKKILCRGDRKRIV
- Assay type: cell membranes, Sf9, Membrane
- CONDITION DETAILS: sf9; read-out: IC50
Units for pIC50: none; it is -log10 of a concentration expressed in mol/L.

**Query** Hello, please tell me recorded pIC50 for this one: CADMIUM ACETATE
**Result** 5.34

**Query** Hello, please tell me recorded pIC50 for this one: LEAD (II) ACETATE
**Result** 5.44

----------
- ASSAY COMMENT: DRUGMATRIX: beta-Lactamase enzyme inhibition (substrate: Nitrocefin)
- Design: species or system Bacillus cereus
- CONDITION DETAILS: Not Active = under 50% inhibition at 10 µM
PARAMETER: IC50

// solved cases for IC50 follow
CC(C)CN(C[C@@H](O)[C@H](Cc1ccccc1)NC(=O)O[C@H]1CCOC1)S(=O)(=O)c1ccc(N)cc1 ... Not Active
NCCCCCC(=O)O ... Not Active
CC1=C2C(=CO[C@H](C)[C@H]2C)C(O)=C(C(=O)O)C1=O ... Not Active
Cc1onc(-c2ccccc2Cl)c1C(=O)N[C@@H]1C(=O)N2[C@@H]1SC(C)(C)[C@@H]2C(=O)O ... Not Active

Turning to the following molecule.
**Query** Hello, please tell me recorded IC50 for this one: "C[C@H](CS)C(=O)N1CCC[C@H]1C(=O)O"
**Result** Not Active

----------
- TESTED SYSTEM: Substance-K receptor (Homo sapiens); note: in other assays of this panel Not Active means under 50% inhibition at 10 µM
- Sequence (P21452 whole entry): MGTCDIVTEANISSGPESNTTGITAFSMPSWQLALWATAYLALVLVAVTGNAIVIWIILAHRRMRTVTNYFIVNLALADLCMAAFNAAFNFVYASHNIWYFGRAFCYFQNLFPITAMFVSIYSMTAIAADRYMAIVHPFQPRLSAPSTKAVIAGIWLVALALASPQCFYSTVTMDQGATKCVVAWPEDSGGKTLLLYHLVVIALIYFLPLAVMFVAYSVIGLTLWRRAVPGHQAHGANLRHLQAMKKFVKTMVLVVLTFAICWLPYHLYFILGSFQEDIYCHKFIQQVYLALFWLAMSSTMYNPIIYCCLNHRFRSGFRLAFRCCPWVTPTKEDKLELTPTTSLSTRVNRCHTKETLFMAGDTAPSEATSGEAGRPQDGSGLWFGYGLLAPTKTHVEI
- Type: cell membranes, CHO, Membrane
- CONDITION DETAILS: read-out: IC50
Exercise: state measured pIC50 for each of the molecules provided.
Units for pIC50: none; it is -log10 of a concentration expressed in mol/L.

**Query** Hello, please tell me recorded pIC50 for this one: CN(C)CCCN1c2ccccc2Sc2ccc(Cl)cc21 [CHLORPROMAZINE]
**Result** 4.57

**Query** Hello, please tell me recorded pIC50 for this one: "CC(C)(C)NC(=O)[C@@H]1C[C@@H]2CCCC[C@@H]2CN1C[C@@H](O)[C@H](Cc1ccccc1)NC(=O)[C@H](CC(N)=O)NC(=O)c1ccc2ccccc2n1"
**Result** 5.21

**Query** Hello, please tell me recorded pIC50 for this one: CC(=O)O[C@@]12CO[C@@H]1C[C@H](O)[C@@]1(C)C(=O)[C@H](O)C3=C(C)[C@@H](OC(=O)[C@H](O)[C@@H](NC(=O)OC(C)(C)C)c4ccccc4)C[C@@](O)([C@@H](OC(=O)c4ccccc4)[C@H]21)C3(C)C.O.O.O [DOCETAXEL]
**Result** 5.81

**Query** Hello, please tell me recorded pIC50 for this one: CCCCc1oc2ccccc2c1C(=O)c1cc(I)c(OCCN(CC)CC)c(I)c1 [AMIODARONE]
**Result** 4.71

**Query** Hello, please tell me recorded pIC50 for this one: CC/C(=C(\c1ccccc1)c1ccc(OCCN(C)C)cc1)c1ccccc1 [TAMOXIFEN]
**Result** 5.44

----------
- ASSAY COMMENT: DRUGMATRIX: Imidazoline I2, Central radioligand binding (ligand: [3H] Idazoxan)
- Assay type: cell membranes, Rattus norvegicus, Wistar, Cerebral cortex, Membrane
- CONDITION DETAILS: Not Active = under 50% inhibition at 10 µM; read-out: IC50
PARAMETER: pIC50
Units for pIC50: none; it is -log10 of a concentration expressed in mol/L.

**Query** Hello, please tell me recorded pIC50 for this one: Clc1cccc(Cl)c1NC1=NCCN1 [CLONIDINE]
**Result** 7.19

**Query** Hello, please tell me recorded pIC50 for this one: CC[C@@H](CO)NC(=O)[C@@H]1C=C2c3cccc4[nH]cc(c34)C[C@H]2N(C)C1 [METHYLERGONOVINE]
**Result** 5.53

**Query** Hello, please tell me recorded pIC50 for this one: CC(C)[C@H]1C(=O)N2CCC[C@H]2[C@]2(O)O[C@](NC(=O)[C@@H]3C=C4c5cccc6[nH]cc(c56)C[C@H]4N(C)C3)(C(C)C)C(=O)N12 [ERGOCORNINE]
**Result** 8.35

**Query** Hello, please tell me recorded pIC50 for this one: Cc1ccc(N(CC2=NCCN2)c2cccc(O)c2)cc1 [PHENTOLAMINE]
**Result** 7.24

**Query** Hello, please tell me recorded pIC50 for this one: O=C(CCCN1CC=C(n2c(=O)[nH]c3ccccc32)CC1)c1ccc(F)cc1 [DROPERIDOL]
**Result** 5.54

**Query** Hello, please tell me recorded pIC50 for this one: Cc1ccc(/N=C/N(C)/C=N/c2ccc(C)cc2C)c(C)c1 [AMITRAZ]
**Result** 7.32

**Query** Hello, please tell me recorded pIC50 for this one: COc1nc(C)nc(Cl)c1NC1=NCCN1 [MOXONIDINE]
**Result** 5.83

**Query** Hello, please tell me recorded pIC50 for this one: CCCN1C[C@H](CSC)C[C@@H]2c3cccc4[nH]cc(c34)C[C@H]21 [PERGOLIDE]
**Result** 5.51

----------
- TESTED SYSTEM: Tyrosine-protein kinase Lck (Homo sapiens)
- Sequence (P06239 whole entry): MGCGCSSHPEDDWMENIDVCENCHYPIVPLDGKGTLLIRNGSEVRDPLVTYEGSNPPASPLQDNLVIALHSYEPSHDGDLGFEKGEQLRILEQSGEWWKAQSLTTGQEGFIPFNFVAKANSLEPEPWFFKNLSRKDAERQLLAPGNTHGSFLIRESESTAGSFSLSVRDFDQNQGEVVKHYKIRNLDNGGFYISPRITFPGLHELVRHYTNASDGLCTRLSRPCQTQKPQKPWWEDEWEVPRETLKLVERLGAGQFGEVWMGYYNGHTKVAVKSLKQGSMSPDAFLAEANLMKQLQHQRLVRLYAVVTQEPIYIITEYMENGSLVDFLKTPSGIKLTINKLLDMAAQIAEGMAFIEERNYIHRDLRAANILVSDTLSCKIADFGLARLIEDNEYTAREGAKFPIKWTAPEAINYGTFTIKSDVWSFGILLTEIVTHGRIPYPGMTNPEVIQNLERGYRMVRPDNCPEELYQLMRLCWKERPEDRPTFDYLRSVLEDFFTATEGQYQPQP
- ASSAY COMMENT: DRUGMATRIX: Protein Tyrosine Kinase, LCK enzyme inhibition (substrate: Poly(Glu:Tyr))
- Format: cell-based, Insect cells
- CONDITION DETAILS: insect cells; Not Active = under 50% inhibition at 10 µM
PARAMETER: IC50

// solved cases for IC50 follow
CCCC1O[C@@H]2C[C@H]3[C@@H]4CCC5=CC(=O)C=C[C@]5(C)[C@H]4[C@@H](O)C[C@]3(C)[C@]2(C(=O)CO)O1 (some centres not stated) [BUDESONIDE] ... Not Active
O=c1oc2ccccc2c(O)c1Cc1c(O)c2ccccc2oc1=O [DICUMAROL] ... Not Active
CC(C)CN(C[C@@H](O)[C@H](Cc1ccccc1)NC(=O)O[C@H]1CCOC1)S(=O)(=O)c1ccc(N)cc1 ... Not Active
O=NN(CCCl)C(=O)NC1CCCCC1 [LOMUSTINE] ... Not Active
CCC1(c2ccc(N)cc2)CCC(=O)NC1=O (configuration not stated) [AMINOGLUTETHIMIDE] ... Not Active

**Query** Hello, please tell me recorded IC50 for this one: OCCN(CCO)c1nc(N2CCCCC2)c2nc(N(CCO)CCO)nc(N3CCCCC3)c2n1 [DIPYRIDAMOLE]
**Result** Not Active

**Query** Hello, please tell me recorded IC50 for this one: C[C@H](CCC(=O)O)[C@H]1CC[C@H]2[C@@H]3[C@H](O)C[C@@H]4C[C@H](O)CC[C@]4(C)[C@H]3C[C@H](O)[C@]12C [CHOLIC ACID]
**Result** Not Active
